Biological target: FGFR1 (h) (Homo sapiens, UniProt P11362)
Sequence (P11362 22-822): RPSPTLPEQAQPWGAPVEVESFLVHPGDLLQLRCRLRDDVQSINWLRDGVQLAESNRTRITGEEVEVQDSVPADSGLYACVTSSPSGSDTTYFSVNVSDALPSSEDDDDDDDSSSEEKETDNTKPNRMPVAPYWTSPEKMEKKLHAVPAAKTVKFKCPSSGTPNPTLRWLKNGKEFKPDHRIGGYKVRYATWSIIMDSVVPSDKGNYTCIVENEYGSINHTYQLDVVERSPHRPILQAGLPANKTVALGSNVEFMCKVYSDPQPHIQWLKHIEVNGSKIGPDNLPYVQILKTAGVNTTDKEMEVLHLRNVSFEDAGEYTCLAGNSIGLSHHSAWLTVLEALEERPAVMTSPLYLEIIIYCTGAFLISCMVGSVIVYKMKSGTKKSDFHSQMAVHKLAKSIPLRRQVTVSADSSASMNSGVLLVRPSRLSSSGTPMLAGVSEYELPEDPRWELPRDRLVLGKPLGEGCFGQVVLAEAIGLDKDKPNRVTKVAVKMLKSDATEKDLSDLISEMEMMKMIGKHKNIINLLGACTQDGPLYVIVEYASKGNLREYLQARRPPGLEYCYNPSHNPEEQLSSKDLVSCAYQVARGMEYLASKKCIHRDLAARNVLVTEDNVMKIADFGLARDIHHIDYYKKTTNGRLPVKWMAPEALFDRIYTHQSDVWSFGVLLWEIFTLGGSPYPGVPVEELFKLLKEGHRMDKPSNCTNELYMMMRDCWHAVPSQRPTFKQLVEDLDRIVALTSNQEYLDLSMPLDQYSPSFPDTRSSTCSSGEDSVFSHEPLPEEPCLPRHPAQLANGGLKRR
Assay: FGFR1 (enzymatic assay), TR-FRET
Format: biochemical
Conditions: average values if tested multiple times, read-out: FGFR 1 pIC50 (converted)
Assay Readout: IC50
The answer should read as a number with its unit following.

Reference set (3 entries):
> print(dat)
                                   compound                                    target  recorded.value
1  COc1cc(OC)c(F)c(N(CC2COC(=O)N2)c2ccc3ncc(-c4cnn(C)c4)nc3n2)c1 (single isomer, unassigned)  FGFR1 (h) (Homo sapiens, UniProt P11362)         1.15 nM
2  COc1cc(OC)cc(N(CC2CCC(=O)N2)c2ccc3ncc(-c4cnn(C)c4)nc3n2)c1 (stereo not shown) [Compound 54]  FGFR1 (h) (Homo sapiens, UniProt P11362)         6.76 nM
3  COc1cc(OC)c(F)c(N(Cc2ncccn2)c2ccc3ncc(-c4cnn(C)c4)nc3n2)c1F  FGFR1 (h) (Homo sapiens, UniProt P11362)         50.1 nM

Returns the measured IC50 for the input compound. Input: COc1cc(/N=c2\ccc3ncc(-c4cnn(C)c4)nc3n2CCNC(C)C)c(F)c(OC)c1
1.62 nM

* * *

Molecular target: Ba/F3-FGFR1-transfected cells (Homo sapiens)
Construct: BAF3-FGFR1 (MIN IL3) pIC50; other: minus IL3
Sequence (P11362 whole entry, change not shown): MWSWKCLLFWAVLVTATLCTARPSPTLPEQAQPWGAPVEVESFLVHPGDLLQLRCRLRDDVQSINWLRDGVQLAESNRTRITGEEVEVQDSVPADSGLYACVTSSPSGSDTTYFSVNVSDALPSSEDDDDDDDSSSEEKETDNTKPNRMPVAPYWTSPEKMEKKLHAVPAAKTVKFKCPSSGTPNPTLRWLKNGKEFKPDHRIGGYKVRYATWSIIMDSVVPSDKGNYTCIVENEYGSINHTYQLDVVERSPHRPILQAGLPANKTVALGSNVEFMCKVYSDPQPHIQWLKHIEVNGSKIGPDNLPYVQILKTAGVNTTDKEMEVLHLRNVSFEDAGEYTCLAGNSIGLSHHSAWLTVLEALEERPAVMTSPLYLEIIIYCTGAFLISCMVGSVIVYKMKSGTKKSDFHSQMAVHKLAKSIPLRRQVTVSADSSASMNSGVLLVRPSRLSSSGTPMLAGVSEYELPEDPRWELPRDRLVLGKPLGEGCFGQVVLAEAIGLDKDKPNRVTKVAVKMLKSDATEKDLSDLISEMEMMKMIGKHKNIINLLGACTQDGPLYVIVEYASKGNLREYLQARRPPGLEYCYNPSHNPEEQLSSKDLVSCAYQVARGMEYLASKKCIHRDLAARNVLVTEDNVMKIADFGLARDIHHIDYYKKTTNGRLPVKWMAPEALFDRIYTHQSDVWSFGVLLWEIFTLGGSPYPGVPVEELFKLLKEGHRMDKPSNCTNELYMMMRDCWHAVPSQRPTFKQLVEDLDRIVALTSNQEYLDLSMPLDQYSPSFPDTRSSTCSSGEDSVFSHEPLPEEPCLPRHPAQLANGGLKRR
Experiment: Ba/F3-FGFR1 (minus IL3) cellular proliferation assay, Alamar Blue
Assay type: cell-based
Experimental: Ba/F3-FGFR1 (Minus IL3 or Plus IL3) (Cellular Proliferation Assay) In a 384 well plate, 100 nl of compound dilution in DMSO was sprayed before adding 50 μl cell culture medium (phenol red free RPMI-1640, 10% FBS, 2 mM L-Glutamine and 50 μg/ml Gentamycin) containing 20000 cells per well of Ba/F3-FGFR1-transfected cells. Cells were put in an incubator at 37° C. and 5% CO2. […]
Structures can show the parent of a compound that is named as a salt.
Assign y whenever BAF3-FGFR1 (MIN IL3) pIC50 does not fall below 7; assign n whenever it does.

Solved cases below.
> print(dat)
                                   compound                                    target  classification
1  COc1cc(OC)c(F)c(N(Cc2ncco2)c2ccc3ncc(-c4cnn(C)c4)nc3n2)c1  Ba/F3-FGFR1-transfected cells (Homo sapiens)               y
2  CNCCn1/c(=N/c2c(Cl)c(OC)cc(OC)c2Cl)ccc2ncc(-c3cnn(C)c3)nc21  Ba/F3-FGFR1-transfected cells (Homo sapiens)               n
3  COc1cc(OC)c(F)c(N(Cc2ncc[nH]2)c2ccc3ncc(-c4cnn(C)c4)nc3n2)c1 [23-hydrochloric acid salt]  Ba/F3-FGFR1-transfected cells (Homo sapiens)               y

Could you tell me if the measured BAF3-FGFR1 (MIN IL3) pIC50 of COc1cc(OC)c(Cl)c(N(CC2CCC(=O)N2)c2ccc3ncc(-c4cnn(C)c4)nc3n2)c1Cl (single isomer, unassigned) reaches 7 or more?
n

Could you tell me if the measured BAF3-FGFR1 (MIN IL3) pIC50 of COc1cc(OC)cc(N(Cc2ncc[nH]2)c2ccc3ncc(-c4cnn(C)c4)nc3n2)c1 [Compound 24] reaches 7 or more?
y

* * *

Target: KDR (h) (Homo sapiens)
Sequence (P35968 20-1356): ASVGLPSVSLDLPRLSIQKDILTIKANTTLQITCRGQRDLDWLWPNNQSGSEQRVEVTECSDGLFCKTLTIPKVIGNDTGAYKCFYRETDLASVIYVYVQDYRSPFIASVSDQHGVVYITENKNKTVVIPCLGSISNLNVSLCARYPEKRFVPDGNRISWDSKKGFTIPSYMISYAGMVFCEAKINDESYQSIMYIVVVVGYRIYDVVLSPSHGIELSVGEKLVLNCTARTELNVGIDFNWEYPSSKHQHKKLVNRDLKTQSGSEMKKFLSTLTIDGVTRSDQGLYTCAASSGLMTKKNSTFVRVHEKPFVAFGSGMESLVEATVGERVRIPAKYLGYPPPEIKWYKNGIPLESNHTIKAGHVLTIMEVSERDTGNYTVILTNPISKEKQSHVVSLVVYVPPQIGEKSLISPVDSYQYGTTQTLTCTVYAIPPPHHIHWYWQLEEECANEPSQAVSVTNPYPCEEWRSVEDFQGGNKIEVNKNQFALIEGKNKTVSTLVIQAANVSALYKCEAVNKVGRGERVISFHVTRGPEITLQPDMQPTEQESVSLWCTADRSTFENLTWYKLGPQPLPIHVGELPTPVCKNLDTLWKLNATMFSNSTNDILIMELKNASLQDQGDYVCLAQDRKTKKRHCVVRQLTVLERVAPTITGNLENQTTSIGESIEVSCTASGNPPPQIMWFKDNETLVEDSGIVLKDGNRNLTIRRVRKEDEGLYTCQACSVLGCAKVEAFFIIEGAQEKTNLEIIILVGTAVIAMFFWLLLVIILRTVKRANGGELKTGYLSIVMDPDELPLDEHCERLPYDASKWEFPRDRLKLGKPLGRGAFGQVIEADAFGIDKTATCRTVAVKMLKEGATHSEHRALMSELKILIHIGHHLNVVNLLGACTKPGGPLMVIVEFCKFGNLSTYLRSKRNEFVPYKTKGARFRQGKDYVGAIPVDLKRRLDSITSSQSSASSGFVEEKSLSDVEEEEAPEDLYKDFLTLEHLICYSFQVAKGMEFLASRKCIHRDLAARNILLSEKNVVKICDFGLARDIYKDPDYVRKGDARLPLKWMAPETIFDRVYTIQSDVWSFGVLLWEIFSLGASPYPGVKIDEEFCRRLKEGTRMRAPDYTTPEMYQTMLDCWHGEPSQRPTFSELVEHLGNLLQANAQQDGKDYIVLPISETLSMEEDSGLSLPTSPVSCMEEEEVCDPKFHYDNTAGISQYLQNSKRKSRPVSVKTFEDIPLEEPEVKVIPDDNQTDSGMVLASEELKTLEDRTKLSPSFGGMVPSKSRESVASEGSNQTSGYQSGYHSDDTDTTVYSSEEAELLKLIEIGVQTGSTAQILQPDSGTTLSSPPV
Test: KDR (VEGFR2) (enzymatic assay), TR-FRET
Assay type: biochemical
Conditions: average values if tested multiple times, read-out: VEGFR 2 (KDR) pIC50 (converted)
Where a name gives a salt, the structure may show the parent alone.
Assay Readout: IC50 (nM)
Numbers only, in nM.

Reference set (6 entries):
> print(dat)
                                   compound                  target  recorded.value
1  COc1cc(OC)c(F)c(N(CC2COC(=O)N2)c2ccc3ncc(-c4cnn(C)c4)nc3n2)c1 (single isomer, unassigned)  KDR (h) (Homo sapiens)            30.9
2  COc1cc(OC)cc(N(Cc2ncc[nH]2)c2ccc3ncc(-c4cnn(C)c4)nc3n2)c1 [24-phosphate salt]  KDR (h) (Homo sapiens)            14.5
3  COCC(O)CN(c1cc(OC)cc(OC)c1)c1ccc2ncc(-c3cnn(C)c3)nc2n1 (stereo not shown)  KDR (h) (Homo sapiens)             200
4  COc1cc(OC)c(F)c(N(CCCO)c2ccc3ncc(-c4cnn(C)c4)nc3n2)c1F (single isomer, unassigned)  KDR (h) (Homo sapiens)             100
5  COc1cc(OC)c(F)c(N(Cc2ncc[nH]2)c2ccc3ncc(-c4cnn(C)c4)nc3n2)c1 [23-phosphate salt]  KDR (h) (Homo sapiens)            7.94
6  COc1cc(OC)cc(N(Cc2nc[nH]n2)c2ccc3ncc(-c4cnn(C)c4)nc3n2)c1  KDR (h) (Homo sapiens)            19.1

Given the entry COc1cc(OC)c(F)c(/N=c2\ccc3ncc(-c4cnn(C)c4)nc3n2CCN)c1F , what IC50 was observed with KDR (h) (Homo sapiens)?
15.8

* * *

Target: Ba/F3-FGFR1-transfected cells (Homo sapiens)
Construct: BAF3-FGFR1 (MIN IL3) pIC50; other: minus IL3
Test: Ba/F3-FGFR1 (minus IL3) cellular proliferation assay, Alamar Blue
Assay type: cell-based
Counter-ions that a name gives are not always drawn.
Assign 1 whenever BAF3-FGFR1 (MIN IL3) pIC50 does not fall below 8; assign 0 whenever it does.

> print(dat)
                                   molecule  classification
1  COc1cc(OC)c(Cl)c(/N=c2\ccc3ncc(-c4cnn(C)c4)nc3n2CC2CCC(=O)N2)c1Cl (single isomer, unassigned) [Compound 87]               0
2  COc1cc(/N=c2\ccc3ncc(-c4cnn(C)c4)nc3n2CCN2CCOCC2)cc(OC)c1 [Compound 147]               0
3  COc1cc(/N=c2\ccc3ncc(-c4cnn(C)c4)nc3n2Cc2c(C)noc2C)c(F)c(OC)c1 [Compound 179]               0
4  COc1cc(OC)c(F)c(N(CC2CCC(=O)N2C)c2ccc3ncc(-c4cnn(C)c4)nc3n2)c1 (centres unmarked) [Compound 161]               0
5  CNCCn1/c(=N/c2c(F)c(OC)cc(OC)c2F)ccc2ncc(-c3cnn(C)c3)nc21 [Compound 4]               0
6  COc1cc(OC)c(F)c(N(CCN(C2COC2)C2COC2)c2ccc3ncc(-c4cnn(C)c4)nc3n2)c1 [Compound 222]               0

Could you tell me if the measured BAF3-FGFR1 (MIN IL3) pIC50 of COc1cc(OC)c(F)c(/N=c2\ccc3ncc(-c4cnn(C)c4)nc3n2CC(O)COC(C)C)c1F (centres unmarked) [Compound 64] reaches 8 or more?
1

Could you tell me if the measured BAF3-FGFR1 (MIN IL3) pIC50 of CNCCN(c1ccc2ncc(-c3cnn(C)c3)nc2n1)c1c(F)c(O)cc(OC)c1F [Compound 122] reaches 8 or more?
0

Could you tell me if the measured BAF3-FGFR1 (MIN IL3) pIC50 of COc1cc(OC)c(F)c(N(Cc2noc(C)n2)c2ccc3ncc(-c4cnn(C)c4)nc3n2)c1 [Compound 297] reaches 8 or more?
0

Could you tell me if the measured BAF3-FGFR1 (MIN IL3) pIC50 of COCC(O)Cn1/c(=N/c2cc(OC)cc(OC)c2F)ccc2ncc(-c3cnn(C)c3)nc21 (single isomer, unassigned) [Compound 60] reaches 8 or more?
1

Could you tell me if the measured BAF3-FGFR1 (MIN IL3) pIC50 of COc1cc(OC)c(F)c(N(Cc2ncc[nH]2)c2ccc3ncc(-c4cnn(C)c4)nc3n2)c1 [23-phosphate salt] reaches 8 or more?
1

Could you tell me if the measured BAF3-FGFR1 (MIN IL3) pIC50 of COc1cc(OC)c(F)c(N(CCCN2CCCC2=O)c2ccc3ncc(-c4cnn(C)c4)nc3n2)c1F [Compound 56] reaches 8 or more?
0

Could you tell me if the measured BAF3-FGFR1 (MIN IL3) pIC50 of COc1cc(/N=c2\ccc3ncc(-c4cnn(C)c4)nc3n2CC2CCOC2)c(F)c(OC)c1 (single isomer, unassigned) [Compound 169] reaches 8 or more?
0

Could you tell me if the measured BAF3-FGFR1 (MIN IL3) pIC50 of COc1cc(OC)c(F)c(N(Cc2nc(C)c[nH]2)c2ccc3ncc(-c4cnn(C)c4)nc3n2)c1 [Compound 135] reaches 8 or more?
1

Could you tell me if the measured BAF3-FGFR1 (MIN IL3) pIC50 of COc1ccc(Cl)c(N(Cc2ncc[nH]2)c2ccc3ncc(-c4cnn(C)c4)nc3n2)c1Cl [Compound 65] reaches 8 or more?
0

Could you tell me if the measured BAF3-FGFR1 (MIN IL3) pIC50 of CCn1cc(-c2cnc3ccc(N(Cc4ncc[nH]4)c4cc(OC)cc(OC)c4F)nc3n2)cn1 [Compound 223] reaches 8 or more?
1

Could you tell me if the measured BAF3-FGFR1 (MIN IL3) pIC50 of CNCCN(c1ccc2ncc(-c3cnn(C)c3)nc2n1)c1c(F)c(OC)cc(OC)c1F [Compound 3] reaches 8 or more?
1

Could you tell me if the measured BAF3-FGFR1 (MIN IL3) pIC50 of COc1cc(OC)c(F)c(N(CC(C)(C)O)c2ccc3ncc(-c4cnn(C)c4)nc3n2)c1F [Compound 278] reaches 8 or more?
0

Could you tell me if the measured BAF3-FGFR1 (MIN IL3) pIC50 of COc1cc(OC)c(F)c(N(Cc2ncc[nH]2)c2ccc3ncc(-c4cnn(C)c4)nc3n2)c1 [23-Sulfate salt] reaches 8 or more?
1

Could you tell me if the measured BAF3-FGFR1 (MIN IL3) pIC50 of COc1cc(OC)cc(N(Cc2ncc[nH]2)c2ccc3ncc(-c4ccn(C)c4)nc3n2)c1 [Compound 198] reaches 8 or more?
1

Could you tell me if the measured BAF3-FGFR1 (MIN IL3) pIC50 of COc1cc(OC)cc(N(CC2CCC(=O)N2)c2ccc3ncc(-c4cnn(C)c4)nc3n2)c1 (centres unmarked) [Compound 54] reaches 8 or more?
0

Could you tell me if the measured BAF3-FGFR1 (MIN IL3) pIC50 of COc1cc(OC)cc(N(CCCN2CCCC2=O)c2ccc3ncc(-c4cnn(C)c4)nc3n2)c1 [Compound 134] reaches 8 or more?
0

Could you tell me if the measured BAF3-FGFR1 (MIN IL3) pIC50 of COc1ccc(Cl)c(N(CC2CCC(=O)N2)c2ccc3ncc(-c4cnn(C)c4)nc3n2)c1Cl (single isomer, unassigned) [Compound 90] reaches 8 or more?
0
